System: Schistosoma mansoni
TEST DESCRIPTION: Antiparasitic activity against Schistosoma mansoni infected in female Swiss-Webster mouse assessed as worm killing at 50 uM after 48 hrs by stereomicroscopy
Assay type: functional
The source made the active and inactive calls. The calls are words filed in the database; no cut-off is given here.

[
  {
    "COMPOUND": "N#Cc1nonc1COc1ccc2c(c1)C1CN(C(=O)C3CCCCC3)CC(=O)N1CC2 (centres undefined)",
    "STUDY SYSTEM": "Schistosoma mansoni",
    "Activity": "inactive"
  },
  {
    "COMPOUND": "NC(=O)c1c(COc2ccc3c(c2)C2CN(C(=O)C4CCCCC4)CC(=O)N2CC3)no[n+]1[O-] (centres undefined)",
    "STUDY SYSTEM": "Schistosoma mansoni",
    "Activity": "inactive"
  },
  {
    "COMPOUND": "O=C(C1CCCCC1)N1CC(=O)N2CCc3ccc(OCCCOc4nonc4S(=O)(=O)c4ccccc4)cc3C2C1 (centres undefined)",
    "STUDY SYSTEM": "Schistosoma mansoni",
    "Activity": "inactive"
  },
  {
    "COMPOUND": "NC(=O)c1nonc1COc1ccc2c(c1)C1CN(C(=O)C3CCCCC3)CC(=O)N1CC2 (centres undefined)",
    "STUDY SYSTEM": "Schistosoma mansoni",
    "Activity": "inactive"
  }
]

* * *

# maps each entry to its Activity
TEST DESCRIPTION: Induction of NO release in pH 7.4 buffer solution at 5:1 excess of L-cysteine after 1 hr incubation by Griess assay
Type: physicochemical
CONDITION SUMMARY: pH 7.4, 1 h

[
  {
    "COMPOUND": "N#Cc1c(C(=O)N2CC(=O)N3CCc4ccccc4C3C2)no[n+]1[O-] (stereo unspecified)",
    "BOUND TYPE": "=",
    "Activity [%]": 56.2
  },
  {
    "COMPOUND": "NC(=O)c1c(C(=O)N2CC(=O)N3CCc4ccccc4C3C2)no[n+]1[O-] (stereo unspecified)",
    "BOUND TYPE": "=",
    "Activity [%]": 1.8
  },
  {
    "COMPOUND": "COC(=O)c1c(C(=O)N2CC(=O)N3CCc4ccccc4C3C2)no[n+]1[O-] (stereo unspecified)",
    "BOUND TYPE": "<",
    "Activity [%]": 1
  },
  {
    "COMPOUND": "NC(=O)c1c(COc2ccc3c(c2)C2CN(C(=O)C4CCCCC4)CC(=O)N2CC3)no[n+]1[O-] (stereo unspecified)",
    "BOUND TYPE": "=",
    "Activity [%]": 1.1
  },
  {
    "COMPOUND": "N#Cc1c(COc2ccc3c(c2)C2CN(C(=O)C4CCCCC4)CC(=O)N2CC3)no[n+]1[O-] (stereo unspecified)",
    "BOUND TYPE": "=",
    "Activity [%]": 33.8
  },
  {
    "COMPOUND": "O=C(C1CCCCC1)N1CC(=O)N2CCc3ccc(OCCCOc4no[n+]([O-])c4S(=O)(=O)c4ccccc4)cc3C2C1 (stereo unspecified)",
    "BOUND TYPE": "=",
    "Activity [%]": 15.7
  }
]

* * *

Catalogue of Activity readings, one per entry.
System: Schistosoma mansoni
TEST DESCRIPTION: Antiparasitic activity against Schistosoma mansoni infected in female Swiss-Webster mouse assessed as worm killing at 50 uM after 144 hrs by stereomicroscopy

[
  {
    "COMPOUND": "COC(=O)c1nonc1C(=O)N1CC(=O)N2CCc3ccccc3C2C1 (stereo unspecified)",
    "UNIT ANNOTATION": "%",
    "Activity": 18
  },
  {
    "COMPOUND": "N#Cc1nonc1C(=O)N1CC(=O)N2CCc3ccccc3C2C1 (stereo unspecified)",
    "UNIT ANNOTATION": "%",
    "Activity": 25
  },
  {
    "COMPOUND": "COC(=O)c1c(C(=O)N2CC(=O)N3CCc4ccccc4C3C2)no[n+]1[O-] (stereo unspecified)",
    "UNIT ANNOTATION": "%",
    "Activity": 50
  },
  {
    "COMPOUND": "NC(=O)c1nonc1C(=O)N1CC(=O)N2CCc3ccccc3C2C1 (stereo unspecified)",
    "UNIT ANNOTATION": "%",
    "Activity": 23
  },
  {
    "COMPOUND": "O=C(C1CCCCC1)N1CC(=O)N2CCc3ccccc3C2C1 (racemic) [PRAZIQUANTEL]",
    "UNIT ANNOTATION": "%",
    "Activity": 40
  },
  {
    "COMPOUND": "NC(=O)c1c(C(=O)N2CC(=O)N3CCc4ccccc4C3C2)no[n+]1[O-] (stereo unspecified)",
    "UNIT ANNOTATION": "%",
    "Activity": 80
  }
]

* * *

Tested on: Schistosoma mansoni
TEST DESCRIPTION: Antiparasitic activity against Schistosoma mansoni infected in female Swiss-Webster mouse assessed as worm killing at 10 uM after 144 hrs by stereomicroscopy
This listing pairs molecules with measured Activity.

[
  {
    "MOLECULE": "COC(=O)c1c(C(=O)N2CC(=O)N3CCc4ccccc4C3C2)no[n+]1[O-] (configuration not stated)",
    "Activity": "23%"
  },
  {
    "MOLECULE": "NC(=O)c1c(C(=O)N2CC(=O)N3CCc4ccccc4C3C2)no[n+]1[O-] (configuration not stated)",
    "Activity": "30%"
  },
  {
    "MOLECULE": "COC(=O)c1nonc1C(=O)N1CC(=O)N2CCc3ccccc3C2C1 (configuration not stated)",
    "Activity": "15%"
  },
  {
    "MOLECULE": "N#Cc1c(C(=O)N2CC(=O)N3CCc4ccccc4C3C2)no[n+]1[O-] (configuration not stated)",
    "Activity": "30%"
  },
  {
    "MOLECULE": "N#Cc1nonc1C(=O)N1CC(=O)N2CCc3ccccc3C2C1 (configuration not stated)",
    "Activity": "20%"
  },
  {
    "MOLECULE": "NC(=O)c1nonc1C(=O)N1CC(=O)N2CCc3ccccc3C2C1 (configuration not stated)",
    "Activity": "23%"
  },
  {
    "MOLECULE": "O=C(C1CCCCC1)N1CC(=O)N2CCc3ccccc3C2C1 (racemic) [PRAZIQUANTEL]",
    "Activity": "15%"
  }
]

* * *

STUDY SYSTEM: Thioredoxin glutathione reductase (Schistosoma mansoni, UniProt Q962Y6)
Sequence (Q962Y6 whole entry): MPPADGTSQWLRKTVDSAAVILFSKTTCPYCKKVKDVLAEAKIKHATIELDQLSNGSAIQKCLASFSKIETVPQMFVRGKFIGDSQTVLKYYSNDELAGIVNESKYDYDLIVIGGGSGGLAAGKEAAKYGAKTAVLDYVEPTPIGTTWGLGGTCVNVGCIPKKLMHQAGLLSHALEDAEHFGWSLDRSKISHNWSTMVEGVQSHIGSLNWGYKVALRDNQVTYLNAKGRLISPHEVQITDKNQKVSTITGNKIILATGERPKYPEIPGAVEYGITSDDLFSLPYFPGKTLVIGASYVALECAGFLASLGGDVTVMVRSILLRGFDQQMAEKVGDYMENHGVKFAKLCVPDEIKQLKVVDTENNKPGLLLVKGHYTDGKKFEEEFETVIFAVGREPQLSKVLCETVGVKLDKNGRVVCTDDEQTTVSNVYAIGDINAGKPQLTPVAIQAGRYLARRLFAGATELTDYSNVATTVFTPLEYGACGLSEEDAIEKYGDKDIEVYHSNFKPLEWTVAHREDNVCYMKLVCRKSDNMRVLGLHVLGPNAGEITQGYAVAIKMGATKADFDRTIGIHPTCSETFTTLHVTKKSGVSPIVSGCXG
TEST DESCRIPTION: Inhibition of Schistosoma mansoni recombinant thioredoxin glutathione reductase assessed as 5-thio-2nitrobezoic acid formation after 3 mins
CONDITION SUMMARY: read-out: IC50
pIC50: −log10 of the molar value.
MEASURED QUANTITY: pIC50

[
  {
    "MOLECULE": "N#Cc1c(COc2ccc3c(c2)C2CN(C(=O)C4CCCCC4)CC(=O)N2CC3)no[n+]1[O-] (configuration not stated)",
    "STUDY SYSTEM": "Thioredoxin glutathione reductase (Schistosoma mansoni, UniProt Q962Y6)",
    "MEASURED QUANTITY": "pIC50",
    "BOUND TYPE": "=",
    "VALUE REPORTED": 6.46
  },
  {
    "MOLECULE": "O=C(C1CCCCC1)N1CC(=O)N2CCc3ccc(OCCCOc4no[n+]([O-])c4S(=O)(=O)c4ccccc4)cc3C2C1 (configuration not stated)",
    "STUDY SYSTEM": "Thioredoxin glutathione reductase (Schistosoma mansoni, UniProt Q962Y6)",
    "MEASURED QUANTITY": "pIC50",
    "BOUND TYPE": "=",
    "VALUE REPORTED": 5.07
  },
  {
    "MOLECULE": "O=C(C1CCCCC1)N1CC(=O)N2CCc3ccc(OCCCOc4nonc4S(=O)(=O)c4ccccc4)cc3C2C1 (configuration not stated)",
    "STUDY SYSTEM": "Thioredoxin glutathione reductase (Schistosoma mansoni, UniProt Q962Y6)",
    "MEASURED QUANTITY": "pIC50",
    "BOUND TYPE": "<",
    "VALUE REPORTED": 4.30
  },
  {
    "MOLECULE": "NC(=O)c1nonc1COc1ccc2c(c1)C1CN(C(=O)C3CCCCC3)CC(=O)N1CC2 (configuration not stated)",
    "STUDY SYSTEM": "Thioredoxin glutathione reductase (Schistosoma mansoni, UniProt Q962Y6)",
    "MEASURED QUANTITY": "pIC50",
    "BOUND TYPE": "<",
    "VALUE REPORTED": 4.30
  },
  {
    "MOLECULE": "N#Cc1nonc1C(=O)N1CC(=O)N2CCc3ccccc3C2C1 (configuration not stated)",
    "STUDY SYSTEM": "Thioredoxin glutathione reductase (Schistosoma mansoni, UniProt Q962Y6)",
    "MEASURED QUANTITY": "pIC50",
    "BOUND TYPE": "<",
    "VALUE REPORTED": 4.30
  },
  {
    "MOLECULE": "N#Cc1c(C(=O)N2CC(=O)N3CCc4ccccc4C3C2)no[n+]1[O-] (configuration not stated)",
    "STUDY SYSTEM": "Thioredoxin glutathione reductase (Schistosoma mansoni, UniProt Q962Y6)",
    "MEASURED QUANTITY": "pIC50",
    "BOUND TYPE": "=",
    "VALUE REPORTED": 6.50
  },
  {
    "MOLECULE": "COC(=O)c1nonc1C(=O)N1CC(=O)N2CCc3ccccc3C2C1 (configuration not stated)",
    "STUDY SYSTEM": "Thioredoxin glutathione reductase (Schistosoma mansoni, UniProt Q962Y6)",
    "MEASURED QUANTITY": "pIC50",
    "BOUND TYPE": "<",
    "VALUE REPORTED": 4.30
  },
  {
    "MOLECULE": "NC(=O)c1nonc1C(=O)N1CC(=O)N2CCc3ccccc3C2C1 (configuration not stated)",
    "STUDY SYSTEM": "Thioredoxin glutathione reductase (Schistosoma mansoni, UniProt Q962Y6)",
    "MEASURED QUANTITY": "pIC50",
    "BOUND TYPE": "<",
    "VALUE REPORTED": 4.30
  },
  {
    "MOLECULE": "COC(=O)c1c(C(=O)N2CC(=O)N3CCc4ccccc4C3C2)no[n+]1[O-] (configuration not stated)",
    "STUDY SYSTEM": "Thioredoxin glutathione reductase (Schistosoma mansoni, UniProt Q962Y6)",
    "MEASURED QUANTITY": "pIC50",
    "BOUND TYPE": "=",
    "VALUE REPORTED": 6.83
  },
  {
    "MOLECULE": "N#Cc1nonc1COc1ccc2c(c1)C1CN(C(=O)C3CCCCC3)CC(=O)N1CC2 (configuration not stated)",
    "STUDY SYSTEM": "Thioredoxin glutathione reductase (Schistosoma mansoni, UniProt Q962Y6)",
    "MEASURED QUANTITY": "pIC50",
    "BOUND TYPE": "<",
    "VALUE REPORTED": 4.30
  },
  {
    "MOLECULE": "NC(=O)c1c(COc2ccc3c(c2)C2CN(C(=O)C4CCCCC4)CC(=O)N2CC3)no[n+]1[O-] (configuration not stated)",
    "STUDY SYSTEM": "Thioredoxin glutathione reductase (Schistosoma mansoni, UniProt Q962Y6)",
    "MEASURED QUANTITY": "pIC50",
    "BOUND TYPE": "=",
    "VALUE REPORTED": 7.08
  },
  {
    "MOLECULE": "NC(=O)c1c(C(=O)N2CC(=O)N3CCc4ccccc4C3C2)no[n+]1[O-] (configuration not stated)",
    "STUDY SYSTEM": "Thioredoxin glutathione reductase (Schistosoma mansoni, UniProt Q962Y6)",
    "MEASURED QUANTITY": "pIC50",
    "BOUND TYPE": "=",
    "VALUE REPORTED": 8.00
  }
]
